Numbers sourced from paper PMC4962012.

# assayText: MTT cytotoxicity assay, LNCaP cells
# Type: cell-based
# settings: human, LNCaP prostate cancer cells
IC50 reference
Reply numerically in µM, unit not repeated.

• COc1ccc(C2SSC34CC5(O)C(Cl)C=CC(O)C5ON3C(=O)C2N(C)C4=O)c(O)c1OC (centres unmarked) [compound 5, N-methylpretrichodermamide B] = 1.76

Pending compound:
Input line: Identify measured IC50 associated with CC(=O)O[C@@]12CO[C@@H]1C[C@H](O)[C@@]1(C)C(=O)[C@H](O)C3=C(C)[C@@H](OC(=O)[C@H](O)[C@@H](NC(=O)OC(C)(C)C)c4ccccc4)C[C@@](O)([C@@H](OC(=O)c4ccccc4)[C@H]21)C3(C)C [docetaxel, reference compound]
Output line: 0.004

* * *

# assayText: MTT cytotoxicity assay, 22Rv1 cells
# Type: cell-based
# settings: human, 22Rv1 prostate cancer cells
The molecules listed here are annotated with their IC50.
Number only, in nM; omit the unit.

- CC(=O)O[C@@]12CO[C@@H]1C[C@H](O)[C@@]1(C)C(=O)[C@H](O)C3=C(C)[C@@H](OC(=O)[C@H](O)[C@@H](NC(=O)OC(C)(C)C)c4ccccc4)C[C@@](O)([C@@H](OC(=O)c4ccccc4)[C@H]21)C3(C)C [docetaxel, reference compound]: 13

Okay, now this molecule:
Input line: Report measured IC50; entry is COc1ccc(C2SSC34CC5(O)C(Cl)C=CC(O)C5ON3C(=O)C2N(C)C4=O)c(O)c1OC (centres unmarked) [compound 5, N-methylpretrichodermamide B]
Output line: 510
